target: IGF-1R (Homo sapiens); construct: expressed in transfected cells; test: Example B-2: IGF-1R Assay (PathHunter cell lines, EC80 agonist challenge, chemiluminescent detection); assay type: cell-based; conditions: PathHunter cells, compound 60 minutes at 37° C., EC80 agonist 3 hours; read-out: IC50, Biological Activity against IGF-1R (Table B2)
measurementKind: IC50

[
  {
    "compound": "CC1(C)C(=O)N(c2ccc(C3(C#N)CC3)cc2)C(=O)N1Cc1ccnc2c1CC(=O)N2 [Compound 64]",
    "targetOrTestSystem": "IGF-1R (Homo sapiens)",
    "measurementKind": "IC50",
    "result": "500 to 2000 nM"
  },
  {
    "compound": "CC1(C)C(=O)N(c2ccc(S(=O)(=O)C(F)(F)F)cc2)C(=O)N1Cc1ccnc2[nH]ccc12 [Compound 22]",
    "targetOrTestSystem": "IGF-1R (Homo sapiens)",
    "measurementKind": "IC50",
    "result": "≤ 500 nM"
  },
  {
    "compound": "CC1(C)C(=O)N(c2ccc(C3(C(F)(F)F)CC3)cc2)C(=O)N1Cc1ccnc(NCc2nc3ccccn3n2)c1 [Compound 175]",
    "targetOrTestSystem": "IGF-1R (Homo sapiens)",
    "measurementKind": "IC50",
    "result": "≤ 500 nM"
  },
  {
    "compound": "Cn1cc(CNc2cc(CN3C(=O)N(c4ccc(C5(C(F)(F)F)CC5)cc4)C(=O)C3(C)C)ccn2)cn1 [Compound 169]",
    "targetOrTestSystem": "IGF-1R (Homo sapiens)",
    "measurementKind": "IC50",
    "result": "≤ 500 nM"
  },
  {
    "compound": "COC[C@@H](C)Nc1cc(CN2C(=O)N(c3ccc4c(c3)N(S(C)(=O)=O)CC4(C)C)C(=O)C2(C)C)ccn1 [Compound 203]",
    "targetOrTestSystem": "IGF-1R (Homo sapiens)",
    "measurementKind": "IC50",
    "result": "≤ 500 nM"
  },
  {
    "compound": "COc1c(CN2C(=O)N(c3ccc(S(=O)(=O)C(F)(F)F)cc3)C(=O)C2(C)C)ccnc1N [Compound 394]",
    "targetOrTestSystem": "IGF-1R (Homo sapiens)",
    "measurementKind": "IC50",
    "result": "≤ 500 nM"
  },
  {
    "compound": "CC1(C)C(=O)N(c2ccc(S(=O)(=O)C(F)(F)F)cc2)C(=O)N1Cc1ccnc(N[C@@H]2[C@@H]3COC[C@@H]32)c1 [Compound 335]",
    "targetOrTestSystem": "IGF-1R (Homo sapiens)",
    "measurementKind": "IC50",
    "result": "500 to 2000 nM"
  },
  {
    "compound": "CC(c1ccnc(NC2CCOCC2)c1)N1C(=O)N(c2ccc(C3(C(F)(F)F)CC3)cc2)C(=O)C1(C)C (stereo not drawn) [Compound 134]",
    "targetOrTestSystem": "IGF-1R (Homo sapiens)",
    "measurementKind": "IC50",
    "result": "500 to 2000 nM"
  },
  {
    "compound": "CC(C)Nc1cc(CN2C(=O)N(c3ccc(C4(C)CC4)cc3)C(=O)C2(C)C)ccn1 [Compound 98]",
    "targetOrTestSystem": "IGF-1R (Homo sapiens)",
    "measurementKind": "IC50",
    "result": "≤ 500 nM"
  },
  {
    "compound": "CC(C)(Br)Cc1cn(S(C)(=O)=O)c2cc(N3C(=O)N(Cc4ccnc5c4CC(=O)N5)C(C)(C)C3=O)ccc12 [Compound 41]",
    "targetOrTestSystem": "IGF-1R (Homo sapiens)",
    "measurementKind": "IC50",
    "result": "≤ 500 nM"
  },
  {
    "compound": "COC1(c2ccc(N3C(=O)N(Cc4ccnc(NC(C)C)c4)C(C)(C)C3=O)cc2)CC1 [Compound 104]",
    "targetOrTestSystem": "IGF-1R (Homo sapiens)",
    "measurementKind": "IC50",
    "result": "500 to 2000 nM"
  },
  {
    "compound": "CC(C)(C)c1ccc(N2C(=O)C(C)(C)N(Cc3ccnc4[nH]ccc34)C2=S)cc1 [Compound 407]",
    "targetOrTestSystem": "IGF-1R (Homo sapiens)",
    "measurementKind": "IC50",
    "result": "500 to 2000 nM"
  },
  {
    "compound": "C[C@@H](CC#N)Nc1cc(CN2C(=O)N(c3ccc4c(c3)N(C)CC4(C)C)C(=O)C2(C)C)ccn1 [Compound 217]",
    "targetOrTestSystem": "IGF-1R (Homo sapiens)",
    "measurementKind": "IC50",
    "result": "≤ 500 nM"
  },
  {
    "compound": "CC1(C)C(=O)N(c2ccc(C3(C(F)(F)F)CC3)cc2)C(=O)N1Cc1ccnc2c1CCN2 [Compound 33]",
    "targetOrTestSystem": "IGF-1R (Homo sapiens)",
    "measurementKind": "IC50",
    "result": "≤ 500 nM"
  },
  {
    "compound": "CC1(C)COc2cc(N3C(=O)N(Cc4ccnc5c4CC(=O)N5)C(C)(C)C3=O)c(Br)cc21 [Compound 53]",
    "targetOrTestSystem": "IGF-1R (Homo sapiens)",
    "measurementKind": "IC50",
    "result": "500 to 2000 nM"
  }
]

* * *

Molecular target: IGF-1R (Homo sapiens, UniProt P08069)
Construct: expressed in transfected cells
Sequence (P08069 31-1367): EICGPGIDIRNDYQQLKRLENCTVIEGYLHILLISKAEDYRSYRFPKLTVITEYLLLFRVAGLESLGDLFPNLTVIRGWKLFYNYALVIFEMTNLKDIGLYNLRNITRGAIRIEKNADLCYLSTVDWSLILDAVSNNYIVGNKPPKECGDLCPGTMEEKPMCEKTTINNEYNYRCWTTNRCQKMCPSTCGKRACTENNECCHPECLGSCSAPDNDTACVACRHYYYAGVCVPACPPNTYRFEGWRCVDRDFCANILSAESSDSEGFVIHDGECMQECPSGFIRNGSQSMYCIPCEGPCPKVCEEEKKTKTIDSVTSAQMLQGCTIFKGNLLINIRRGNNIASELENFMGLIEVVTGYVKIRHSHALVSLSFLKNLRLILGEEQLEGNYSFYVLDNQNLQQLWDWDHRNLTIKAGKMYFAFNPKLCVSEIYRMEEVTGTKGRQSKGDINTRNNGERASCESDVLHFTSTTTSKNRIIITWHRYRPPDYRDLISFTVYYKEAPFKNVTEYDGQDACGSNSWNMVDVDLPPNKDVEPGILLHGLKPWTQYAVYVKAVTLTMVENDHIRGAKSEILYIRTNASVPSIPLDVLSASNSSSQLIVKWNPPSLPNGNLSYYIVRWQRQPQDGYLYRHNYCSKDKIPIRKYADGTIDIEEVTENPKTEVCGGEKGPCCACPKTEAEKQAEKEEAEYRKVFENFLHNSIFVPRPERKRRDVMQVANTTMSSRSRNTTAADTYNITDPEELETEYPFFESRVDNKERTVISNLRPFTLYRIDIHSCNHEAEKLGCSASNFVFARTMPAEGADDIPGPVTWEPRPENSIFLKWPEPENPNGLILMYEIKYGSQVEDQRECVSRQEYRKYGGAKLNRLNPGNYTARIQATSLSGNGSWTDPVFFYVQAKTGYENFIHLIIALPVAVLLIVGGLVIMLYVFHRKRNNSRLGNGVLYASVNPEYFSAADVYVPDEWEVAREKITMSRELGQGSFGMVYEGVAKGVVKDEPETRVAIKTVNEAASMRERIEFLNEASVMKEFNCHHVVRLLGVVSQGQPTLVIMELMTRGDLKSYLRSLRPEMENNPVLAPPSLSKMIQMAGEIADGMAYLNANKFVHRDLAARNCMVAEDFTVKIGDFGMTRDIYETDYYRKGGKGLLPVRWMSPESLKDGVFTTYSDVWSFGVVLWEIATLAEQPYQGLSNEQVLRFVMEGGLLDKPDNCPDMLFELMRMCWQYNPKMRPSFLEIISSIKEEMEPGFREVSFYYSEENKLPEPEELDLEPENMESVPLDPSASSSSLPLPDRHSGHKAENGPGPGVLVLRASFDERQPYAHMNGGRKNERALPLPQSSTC
Assay: Example B-2: IGF-1R Assay (PathHunter cell lines, EC80 agonist challenge, chemiluminescent detection)
Assay type: cell-based
Conditions: PathHunter cells, compound 60 minutes at 37° C., EC80 agonist 3 hours; read-out: IC50, Biological Activity against IGF-1R (Table B2)
Description: PathHunter cell lines were expanded from freezer stocks according to standard procedures. Cells were seeded in a total volume of 20 μL into white walled, 384-well microplates and incubated for the appropriate time prior to testing. Cells are pre-incubated with compound followed by EC80 agonist challenge as follows: • R. 1. […] Compound activity was analyzed using CBIS data analysis suite (ChemInnovation, CA). […]
pIC50: −log10 of the molar value.
As shown below, each of these compounds has a reported pIC50 value.

[
  {
    "compound": "CC1(C)C(=O)N(c2ccc(S(=O)(=O)C(F)(F)F)cc2)C(=O)N1Cc1ccnc(NC2CCNC(=O)C2)c1 (stereo not shown)",
    "pIC50": "5.70 to 6.30"
  },
  {
    "compound": "CC1(C)C(=O)N(c2ccc(C3(C(F)(F)F)CC3)cc2)C(=O)N1Cc1ccnc2c1CS(=O)(=O)N2",
    "pIC50": "< 5.00"
  },
  {
    "compound": "CC1(C)CNc2nccc(CN3C(=O)N(c4ccc(SC(F)(F)F)cc4)C(=O)C3(C)C)c21",
    "pIC50": "≥ 6.30"
  },
  {
    "compound": "COC[C@@H](C)Nc1cc(CN2C(=O)N(c3ccc4c(c3)OCC4(C)C)C(=O)C2(C)C)ccn1",
    "pIC50": "≥ 6.30"
  },
  {
    "compound": "C[C@@H](CC#N)Nc1cc(CN2C(=O)N(c3ccc(C(C)(C)C#N)cc3)C(=O)C2(C)C)ccn1",
    "pIC50": "5.70 to 6.30"
  },
  {
    "compound": "CN(C)CC(=O)Nc1cc(N2C(=O)N(Cc3ccnc(N[C@H]4[C@@H]5COC[C@@H]54)c3)C(C)(C)C2=O)ccc1OC(F)(F)F",
    "pIC50": "≥ 6.30"
  },
  {
    "compound": "CN1C(=O)C2(CC2)c2ccc(N3C(=O)N(Cc4ccnc(N)c4)C(C)(C)C3=O)cc21",
    "pIC50": "5.00 to 5.70"
  }
]

* * *

molecular target: IGF-1R (Homo sapiens); construct: expressed in transfected cells; experiment: Example B-2: IGF-1R Assay (PathHunter cell lines, EC80 agonist challenge, chemiluminescent detection); assay type: cell-based; conditions: PathHunter cells, compound 60 minutes at 37° C., EC80 agonist 3 hours; read-out: IC50, Biological Activity against IGF-1R (Table B2)
pIC50: −log10 of the molar value.
As shown below, each of these compounds has a reported pIC50 value.
measurementKind: pIC50

[
  {
    "compound": "CC1(C)C(=O)N(c2ccc(C3(C#N)CC3(C)C)cc2)C(=O)N1Cc1ccnc2c1CC(=O)N2 (centres unmarked)",
    "result": "≥ 6.30"
  },
  {
    "compound": "CC1(C)C(=O)N(c2ccc(C3(C#N)CCC3)cc2)C(=O)N1Cc1ccnc(NC2CCOCC2)c1",
    "result": "≥ 6.30"
  },
  {
    "compound": "CC1CC(Nc2cc(CN3C(=O)N(c4ccc(C5(C(F)(F)F)CC5)cc4)C(=O)C3(C)C)ccn2)CCO1 (centres unmarked)",
    "result": "≥ 6.30"
  },
  {
    "compound": "CC1(C)C(=O)N(c2ccc(C3(C(F)(F)F)CC3)cc2)C(=O)N1Cc1ccnc(NC2CC3(COC3)C2)c1",
    "result": "≥ 6.30"
  },
  {
    "compound": "CC1(C)C(=O)N(c2ccc3c(c2)N(S(C)(=O)=O)CC3)C(=O)N1Cc1ccnc2c1CC(=O)N2",
    "result": "< 5.00"
  },
  {
    "compound": "CN(C)CCOc1cc(N2C(=O)N(Cc3ccnc(N[C@H]4[C@@H]5COC[C@@H]54)c3)C(C)(C)C2=O)ccc1OC(F)(F)F",
    "result": "≥ 6.30"
  },
  {
    "compound": "CN1CC(C)(C)c2ccc(N3C(=O)N(Cc4ccnc(N[C@H]5[C@@H]6COC[C@@H]65)c4)C(C)(C)C3=O)cc21",
    "result": "≥ 6.30"
  },
  {
    "compound": "CC1(C)C(=O)N(c2ccc(C3(C#N)CCC3)cc2)C(=O)N1Cc1ccnc2c1CC(=O)N2",
    "result": "≥ 6.30"
  },
  {
    "compound": "C[C@@H]1COc2c(CN3C(=O)N(c4ccc(C5(C(F)(F)F)CC5)cc4)C(=O)C3(C)C)ccnc2N1",
    "result": "≥ 6.30"
  },
  {
    "compound": "CC1(C)C(=O)N(c2ccc(C3(C(F)(F)F)CC3)cc2)C(=O)N1Cc1ccnc(N[C@@H]2CCOC2)c1",
    "result": "≥ 6.30"
  },
  {
    "compound": "Cn1nc(C(C)(C)C)cc1N1C(=O)N(Cc2ccnc3[nH]ccc23)C(C)(C)C1=O",
    "result": "< 5.00"
  },
  {
    "compound": "CC(C)(C)c1ccc(N2C(=O)N(Cc3ccnc(NC4CCCCC4)c3)C(C)(C)C2=O)cc1",
    "result": "5.70 to 6.30"
  },
  {
    "compound": "CC1(C)C(=O)N(c2ccc(S(=O)(=O)C(F)(F)F)cc2)C(=O)N1Cc1ccnc(NC2CCc3cn[nH]c3C2)c1 (centres unmarked)",
    "result": "≥ 6.30"
  },
  {
    "compound": "CC(C)Nc1cc(CN2C(=O)N(c3ccc(C4(C#N)CC4)cc3)C(=O)C2(C)C)ccn1",
    "result": "5.70 to 6.30"
  }
]

Origin of measurements: patent US20250145585A1
